- tested_target: Human immunodeficiency virus type 1 protease (Human immunodeficiency virus 1, UniProt Q72874)
pIC50: −log10 of the molar value.
recorded_metric: pIC50

item_smiles | quantitative_result
CC(C)(C)NC(=O)c1ccccc1C[C@@H](O)[C@H](Cc1ccccc1)NC(=O)c1cccc(C(=O)N2CCc3ccccc3C2)c1 | 7.30
Cc1cc(C(=O)N[C@@H](Cc2ccccc2)[C@H](O)Cc2ccccc2C(=O)NC(C)(C)C)cc(C(=O)N2CCc3ccccc3C2)c1 | 6.30
Cc1ccc(C(=O)N[C@@H](Cc2ccccc2)[C@H](O)Cc2ccccc2C(=O)NC(C)(C)C)cc1C(=O)N1CCc2ccccc2C1 | 6.17
